# Measurement Protocol: NCI Yeast Anticancer Drug Screen. Data for the sgs1 mgt1 strain (AID 161);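 also: 0% = growth of cultures given vehicle only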
# Condition Info: S. cerevisiae sgs1 mgt1 strain, at 50.0 µM (retest, dose inferred, filed as 5.0), stronger effect = higher value
Compounds without any hit were thinned out: in the full panel of roughly 79,000, 15% have a hit.
Class (by growth inhibition) -- band 1: < 20%; band 2: ≥ 20% and < 80%; band 3: ≥ 80%

Record excerpt, results attached:
{"Molecule": "O=C1OC2(CCCCC2)OC(=O)C1=Cc1ccc([N+](=O)[O-])s1", "Label Class": "band 3"}
{"Molecule": "CN(C)C(=O)/N=c1\\ss/c(=N\\C(=S)N(C)C)n1-c1ccccc1", "Label Class": "band 3"}
{"Molecule": "CN(Cc1cc(C(C)(C)C)cc(Br)c1O)Cc1cc(C(C)(C)C)cc(Br)c1O", "Label Class": "band 2"}
{"Molecule": "CC(=O)CC(C)=NCCN=C(C)CC(C)=O.[Pd]", "Label Class": "band 3"}
{"Molecule": "O=C1CC(O)C=C1Nc1ccc(Cl)cc1 (configuration not stated)", "Label Class": "band 1"}

# evaluate next
Exam item: Textbook exercise: identify the category of the molecule given here, `COc1ccccc1CN1CCCN(Cc2ccccc2OC)C1c1ccccc1F` , according to its measured value.
Marked response: band 1
